# Tested on: Akkermansia muciniphila
# PROTOCOL_DESCRIPTION: growth AUC relative to DMSO control (median of replicates) (fraction); higher = more growth (less inhibition), active = hit call of the paper
# EXPERIMENTAL_CONDITIONS: 20 µM; 24 h
A collection of compounds and their measured growth AUC
Note: the reply should be a number with no unit written.

Below, each entry is followed by its recorded growth AUC result.
{"COMPOUND": "COC(=O)c1ccccc1S(=O)(=O)NC(=O)Nc1nc(OC(F)F)cc(OC(F)F)n1", "ASSAY_SYSTEM": "Akkermansia muciniphila", "growth AUC": 0.91}
{"COMPOUND": "O.O.O=[N+]([O-])c1ccc([O-])cc1.[Na+]", "ASSAY_SYSTEM": "Akkermansia muciniphila", "growth AUC": 1.02}
{"COMPOUND": "c1ccc2c(c1)ccc1ccccc12", "ASSAY_SYSTEM": "Akkermansia muciniphila", "growth AUC": 1.02}
{"COMPOUND": "COc1cc(OC)nc(NC(=O)NS(=O)(=O)Nc2ccccc2C(=O)N(C)C)n1", "ASSAY_SYSTEM": "Akkermansia muciniphila", "growth AUC": 1.01}
{"COMPOUND": "ClC(COCC(Cl)C(Cl)(Cl)Cl)C(Cl)(Cl)Cl (configuration not stated)", "ASSAY_SYSTEM": "Akkermansia muciniphila", "growth AUC": 0.875}

growth AUC of CCN(CC)c1nc(C)cc(=O)[nH]1 on Akkermansia muciniphila?
1.08

Lab note: need growth AUC for CC(C)OC(=O)c1cc(C(=O)OC(C)C)cc([N+](=O)[O-])c1 on Akkermansia muciniphila, anyone have it?
0.939

API: value(readout=growth AUC, system=Akkermansia muciniphila) for record Cc1cc(C2CC2)nc(Nc2ccc(O)cc2)n1
0.829

What value of growth AUC on Akkermansia muciniphila does c1ccc2c(c1)Cc1ccccc1-2 have?
1.04

Could you share what growth AUC was measured for S=C([S-])NCCNC(=S)[S-].[Zn+2] , tested on Akkermansia muciniphila?
1.16

Lab note: need growth AUC with Akkermansia muciniphila for entry CC(C)Nc1nc(N)nc(Cl)n1 , please look it up.
0.991

Param readout= growth AUC; system= Akkermansia muciniphila; entry= CCSC(=O)N(CC(C)C)CC(C)C ; returns value.
0.967

----------
Recorded growth AUC by entry
# Tested on: Streptococcus salivarius
# PROTOCOL_DESCRIPTION: growth AUC relative to DMSO control (median of replicates) (fraction); higher = more growth (less inhibition), active = hit call of the paper
# EXPERIMENTAL_CONDITIONS: 20 µM; 24 h
Output: the number by itself.

For orientation, consider the following solved cases.
{"MOLECULE": "CC(C)NS(=O)(=O)NC(=O)c1cc(-n2c(=O)cc(C(F)(F)F)[nH]c2=O)c(F)cc1Cl", "VALUE_OBSERVED": 1}
{"MOLECULE": "O=C(Nc1ccc(Cl)cc1C(O)c1ccccc1)c1ccncc1 (stereo unspecified)", "VALUE_OBSERVED": 1}
{"MOLECULE": "COC(=O)c1ccc(I)cc1S(=O)(=O)[N-]C(=O)Nc1nc(C)nc(OC)n1.[Na+]", "VALUE_OBSERVED": 0.948}
{"MOLECULE": "CC(C)CCCCCCc1ccc(O)cc1", "VALUE_OBSERVED": 0.965}
{"MOLECULE": "COC(=O)[C@@H](C)Oc1ccc(Oc2ncc(C(F)(F)F)cc2Cl)cc1", "VALUE_OBSERVED": 0.984}

Read the next record carefully.
Which measured growth AUC value corresponds to NC(=O)C1CO1 (stereo unspecified) ?
1.01
